tested on: 233499-124-R-J3-PDC complex spheroid viability, % test/control; assay: Anticancer human tumor 233499-124-R-J3-PDC patient-derived colon adenocarcinoma cell line growth inhibition; conditions: second compound 3.16 µM; first compound 0.316 µM; stronger effect = lower value;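 also: spheroids exposed to agents for one week before readout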
The recorded viability, T/C of each item maps onto one of these classes: c1 = under 60%, c2 = from 60% up to 80%, c3 = 80% and over

Examples from the recorded data:
INSERT INTO results (molecule, class_label) VALUES
  ('O=C(C=Cn1cnc(-c2cc(C(F)(F)F)cc(C(F)(F)F)c2)n1)NNc1cnccn1 + NC1CCC(NC2CC2c2ccccc2)CC1', 'c1'),
  ('CC(C)c1c(-c2ccccc2)nc2c(C#N)c[nH]n2c1=O + NC1CCC(NC2CC2c2ccccc2)CC1', 'c3'),
  ('CC1(C)CCC(CN2CCN(c3ccc(C(=O)NS(=O)(=O)c4ccc(NCC5CCOCC5)c([N+](=O)[O-])c4)c(Oc4cnc5[nH]ccc5c4)c3)CC2)=C(c2ccc(Cl)cc2)C1 + NC1CC1c1ccc(-c2cccc(O)c2)cc1', 'c3'),
  ('CC1(C)CCC(CN2CCN(c3ccc(C(=O)NS(=O)(=O)c4ccc(NCC5CCOCC5)c([N+](=O)[O-])c4)c(Oc4cnc5[nH]ccc5c4)c3)CC2)=C(c2ccc(Cl)cc2)C1 + NC1CCC(NC2CC2c2ccccc2)CC1', 'c3'),
  ('Nc1ncn(C2CC(O)C(CO)O2)c(=O)n1 (stereo not drawn) + NC1CCC(NC2CC2c2ccccc2)CC1', 'c1'),
  ('CC1COCCN1c1cc(-c2ccnn2C)c2ccnc(-c3ccn[nH]3)c2n1 (stereo not drawn) + NC1CCC(NC2CC2c2ccccc2)CC1', 'c1'),
  ('O=C(c1cc(Cc2n[nH]c(=O)c3ccccc23)ccc1F)N1CCN(C(=O)C2CC2)CC1 + NC1CC1c1ccc(-c2cccc(O)c2)cc1', 'c2'),
  ('CC1COCCN1c1cc(-c2ccnn2C)c2ccnc(-c3ccn[nH]3)c2n1 (stereo not drawn) + NC1CC1c1ccc(-c2cccc(O)c2)cc1', 'c1');

Which viability, T/C band matches CC1COCCN1c1cc(C2(S(C)(=N)=O)CC2)nc(-c2ccnc3[nH]ccc23)n1 (stereo not drawn) + NC1CC1c1ccc(-c2cccc(O)c2)cc1 ?
c3

# bin lookup: classify O=C(c1cc(Cc2n[nH]c(=O)c3ccccc23)ccc1F)N1CCN(C(=O)C2CC2)CC1 + NC1CCC(NC2CC2c2ccccc2)CC1 by its viability, T/C
c3

The entry to classify is COc1cc(Nc2ncc3c(n2)-c2ccc(Cl)cc2C(c2c(F)cccc2OC)=NC3)ccc1C(=O)O + NC1CC1c1ccc(-c2cccc(O)c2)cc1 ; which class holds it?
c2

Please classify: O=C(C=Cn1cnc(-c2cc(C(F)(F)F)cc(C(F)(F)F)c2)n1)NNc1cnccn1 + NC1CC1c1ccc(-c2cccc(O)c2)cc1
c2
